For each of the binders below, state its ELISA FLT3 (absorbance).
- Tested System: T1, human FLT3 protein (human, UniProt P36888 27-541, limits assumed)
- T1 construct: protein coated in the screening ELISA; also called ELISA FLT3
- Test Description: colorimetric ELISA, periplasmic extract
- Excerpt: Llamas were immunized with purified FLT3 protein expressed in Expi293 cells. A phage display library for expression of heavy variable antibody domains was constructed from circulating B cells isolated from the immunized llamas (See van der Linden, de Geus, Stok, Bos, van Wassenaar, Verrips, and Frenken. 2000. J Immunol Methods 240:185-195). […]

Answered examples (5):
input: Can you look up the measured ELISA FLT3 (absorbance) of FLL168 (VHH, llama anti-FLT3 variable domain; E. coli periplasmic extract) VHH: QVQLQESGGGSVQAGGSLRLSCAFSGRTFSGFGTGWFRQAPEKEREFVAAISWDGGRTHYADSVKGRFTISRDNAKNTVYLQMDSLKPEDTAIYYCAAQVSRAYDGRWYSAVDYWGRGTQVTVSS for me?
output: 4 absorbance

input: Return reported ELISA FLT3 (absorbance); argument: FLL178 (VHH, llama anti-FLT3 variable domain; E. coli periplasmic extract) VHH: QVQLQESGGGLVQPGGSLRLSCAASGFTFSDYAMSWVRQAPGKGLEWVSGISSGGYKIGYTDSTKGRFTISRDNAKNTLYLQMNSLTAEDTAVYYCAKGTQWSWSLRDNTSRGQGTQVTVSS
output: 4 absorbance

input: Item FLL61 (VHH, llama anti-FLT3 variable domain; E. coli periplasmic extract) VHH: QVQLQESGGGLVQAGGSLRLSCAASERTFSSYAMGWFRQAPGKEREFVAAISWSGGSTYYADSVKGRFTISRDNAKNTVYLQMDSLKPEDTAVYYCAAGGSTRVVVTTTPIVKYWGQGTQVTVSS has what recorded ELISA FLT3 (absorbance)?
output: 3.9 absorbance

input: Need ELISA FLT3 (absorbance), item FLL32 (VHH, llama anti-FLT3 variable domain; E. coli periplasmic extract) VHH: QVQLQESGGGLVQAGGSLRLSCQASGVTFNINYIDWYRQAPGRQREWVAQITRDSTRFYADSVKGRFAISRDNAKNMVYLQLNSLKPEDTAVYYCRILSYWGQGTQVTVSS
output: 1.6 absorbance

input: Please look up its ELISA FLT3 (absorbance): FLL181 (VHH, llama anti-FLT3 variable domain; E. coli periplasmic extract) VHH: QVQLQESGGGLVQAGDSLRLSCAASGVTFSASYIDWYRQAPGNEREWVAQITRGGDSFYADSVKGRFAISRDNAKNTVYLQMNSLKPEDTAVYYCRVLSYWGQGTQVTVSS
output: 3.2 absorbance

Give ELISA FLT3 (absorbance) for each of the items listed below.
1. FLL553 (VHH, llama anti-FLT3 variable domain; E. coli periplasmic extract) VHH: QVQLQESGGGLVQAGGSLRLSCAVSGRTFSGFGTGWFRQAPGKEREFVAAISWSGGTTHYADSVKGRFTISRDNAKNTVNLVYLQMNSLRPEDTAVYYCAGQVARAYDSNWYSRGDYWGQGTQVTVSS
2. FLL67 (VHH, llama anti-FLT3 variable domain; E. coli periplasmic extract) VHH: QVQLQESGGGLVQLGDSLMVSCAASGGTFSSYATGWFRQVPGKEREFIAGISRSGGRTYYAESVKGRFTISRDNAKNTVYLQMNTLKPDDTAVYYCAAARYFTTSVVYTSGDDYDYWGQGTQVTVSS
3. FLL84 (VHH, llama anti-FLT3 variable domain; E. coli periplasmic extract) VHH: QVQLQESGGGLVQAGGSLMVSCAASGGTFSSYATGWFRQVPGKEREFIAGISRSGGRTYYAESVKGRFTISRDNAKNTVYLQMNTLKPDDTAVYYCAAARYFTTSVVYTSGDDYDYWGQGTQVTVSS

output:
1: 3.7 absorbance; 2: 2.7 absorbance; 3: 1.3 absorbance
